# assay-system: T1, rat serum albumin (rat, UniProt P02770 25-608)
# T1 construct: Bought protein, immobilized on a CM5 chip by amine coupling; also called Rat SA
# protocol-summary: SPR (Biacore 8K), albumin immobilized on CM5 chip, 25 C, 1:1 kinetic fit
Catalogue of binders with associated kon
Give the value in M⁻¹ s⁻¹ but do not write M⁻¹ s⁻¹ after it.

Reference set, count: 3
binder="RLN Analog 3 (other, Single-chain fusion: VHH - (G4Q)5 L1 - RLN2 B chain (desB1) - L2 - RLN2 A chain) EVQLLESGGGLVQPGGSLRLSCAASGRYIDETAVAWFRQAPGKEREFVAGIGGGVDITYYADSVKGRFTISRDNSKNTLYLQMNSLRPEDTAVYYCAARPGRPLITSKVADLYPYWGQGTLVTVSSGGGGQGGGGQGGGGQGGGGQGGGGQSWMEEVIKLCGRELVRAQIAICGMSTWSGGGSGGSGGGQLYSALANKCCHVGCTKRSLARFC" value_reported=1.7e+06
binder="RLN Analog 12 (other, Single-chain fusion: VHH - (G4Q)5 L1 - RLN2 B chain (desB1) - L2 of thirteen residues - RLN2 A chain (desA1-4)) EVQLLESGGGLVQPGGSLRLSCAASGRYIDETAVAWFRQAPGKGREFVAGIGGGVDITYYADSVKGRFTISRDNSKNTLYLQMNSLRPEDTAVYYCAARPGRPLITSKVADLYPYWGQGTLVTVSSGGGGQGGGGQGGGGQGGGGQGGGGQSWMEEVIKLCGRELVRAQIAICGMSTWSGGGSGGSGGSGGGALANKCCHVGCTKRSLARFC" value_reported=2e+06
binder="RLN Analog 4 (other, Single-chain fusion: VHH - (PGPQ)8 L1 - RLN2 B chain (desB1) - L2 - RLN2 A chain) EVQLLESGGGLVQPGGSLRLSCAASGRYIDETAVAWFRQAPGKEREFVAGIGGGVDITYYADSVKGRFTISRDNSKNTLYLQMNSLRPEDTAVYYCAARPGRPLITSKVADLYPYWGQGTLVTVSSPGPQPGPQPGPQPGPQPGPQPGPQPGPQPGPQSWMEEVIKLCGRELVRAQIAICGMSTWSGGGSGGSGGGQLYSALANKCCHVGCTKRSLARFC" value_reported=1.2e+06

We next turn to a different binder, shown below.
Q. Which kon value is on record for RLN Analog 13 (other, Single-chain fusion: VHH - (G4Q)5 L1 - RLN2 A chain (desA1-4) - L2 - RLN2 B chain (desB1)) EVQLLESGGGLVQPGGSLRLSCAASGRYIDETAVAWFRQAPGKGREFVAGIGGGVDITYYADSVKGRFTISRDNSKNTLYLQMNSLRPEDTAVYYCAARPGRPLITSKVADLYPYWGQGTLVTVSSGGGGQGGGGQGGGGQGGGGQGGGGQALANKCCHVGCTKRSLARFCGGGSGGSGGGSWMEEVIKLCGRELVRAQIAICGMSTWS ?
A. 1.7e+06
